- testTarget: panel of 203 kinases (Homo sapiens, UniProt Q06187)
- Construct: purchased DiscoverX (KINOMEscan)
- Sequence (Q06187 whole entry): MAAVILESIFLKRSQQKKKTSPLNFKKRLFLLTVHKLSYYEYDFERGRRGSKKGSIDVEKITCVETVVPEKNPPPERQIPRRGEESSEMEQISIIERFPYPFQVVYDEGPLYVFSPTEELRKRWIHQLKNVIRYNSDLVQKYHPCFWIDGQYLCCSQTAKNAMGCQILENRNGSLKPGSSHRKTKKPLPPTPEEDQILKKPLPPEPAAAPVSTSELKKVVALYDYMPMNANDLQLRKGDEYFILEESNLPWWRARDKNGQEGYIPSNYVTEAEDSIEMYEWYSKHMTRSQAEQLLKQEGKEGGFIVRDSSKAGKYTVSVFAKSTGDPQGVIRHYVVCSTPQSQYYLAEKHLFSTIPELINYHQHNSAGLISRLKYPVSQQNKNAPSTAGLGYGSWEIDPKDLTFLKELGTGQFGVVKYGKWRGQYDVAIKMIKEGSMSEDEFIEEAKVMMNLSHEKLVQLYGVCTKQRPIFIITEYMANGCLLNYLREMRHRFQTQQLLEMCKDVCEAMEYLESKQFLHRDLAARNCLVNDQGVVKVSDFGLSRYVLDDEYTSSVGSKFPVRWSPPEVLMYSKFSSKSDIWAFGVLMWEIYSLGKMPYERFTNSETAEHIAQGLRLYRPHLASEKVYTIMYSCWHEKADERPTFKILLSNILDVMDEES
- testSummary: KINOMEscan competitive binding, whole panel
- studyConditions: 10 µM, n=1; kinase BTK; read-out: Percent inhibition BTK
recordedEndpoint: inhibition at 10 µM (%)
Just the number please, in %, no unit attached.

// molecule Cc1ccc(O)cc1N(C)c1ccnc(Nc2cccc(S(N)(=O)=O)c2)n1 [Compound 4] , assay panel of 203 kinases (Homo sapiens, UniProt Q06187), inhibition at 10 µM value: 95

// molecule Cc1ccc(O)cc1Nc1ccnc(Nc2cccc(C(N)=O)c2)n1 [Compound 3] , assay panel of 203 kinases (Homo sapiens, UniProt Q06187), inhibition at 10 µM value: 96

// molecule COc1ccc(Nc2nccc(-c3cnn4ncccc34)n2)cc1 [Compound 2] , assay panel of 203 kinases (Homo sapiens, UniProt Q06187), inhibition at 10 µM value: 0

// molecule Fc1cccc(COc2ccc(Nc3ncnc4c3CN(CCN3CCOCC3)CC4)cc2Cl)c1 [Compound 6] , assay panel of 203 kinases (Homo sapiens, UniProt Q06187), inhibition at 10 µM value: 0

---

- testTarget: panel of 203 kinases (Homo sapiens)
- Construct: purchased DiscoverX (KINOMEscan)
- Sequence (Q9UF33 23-1036): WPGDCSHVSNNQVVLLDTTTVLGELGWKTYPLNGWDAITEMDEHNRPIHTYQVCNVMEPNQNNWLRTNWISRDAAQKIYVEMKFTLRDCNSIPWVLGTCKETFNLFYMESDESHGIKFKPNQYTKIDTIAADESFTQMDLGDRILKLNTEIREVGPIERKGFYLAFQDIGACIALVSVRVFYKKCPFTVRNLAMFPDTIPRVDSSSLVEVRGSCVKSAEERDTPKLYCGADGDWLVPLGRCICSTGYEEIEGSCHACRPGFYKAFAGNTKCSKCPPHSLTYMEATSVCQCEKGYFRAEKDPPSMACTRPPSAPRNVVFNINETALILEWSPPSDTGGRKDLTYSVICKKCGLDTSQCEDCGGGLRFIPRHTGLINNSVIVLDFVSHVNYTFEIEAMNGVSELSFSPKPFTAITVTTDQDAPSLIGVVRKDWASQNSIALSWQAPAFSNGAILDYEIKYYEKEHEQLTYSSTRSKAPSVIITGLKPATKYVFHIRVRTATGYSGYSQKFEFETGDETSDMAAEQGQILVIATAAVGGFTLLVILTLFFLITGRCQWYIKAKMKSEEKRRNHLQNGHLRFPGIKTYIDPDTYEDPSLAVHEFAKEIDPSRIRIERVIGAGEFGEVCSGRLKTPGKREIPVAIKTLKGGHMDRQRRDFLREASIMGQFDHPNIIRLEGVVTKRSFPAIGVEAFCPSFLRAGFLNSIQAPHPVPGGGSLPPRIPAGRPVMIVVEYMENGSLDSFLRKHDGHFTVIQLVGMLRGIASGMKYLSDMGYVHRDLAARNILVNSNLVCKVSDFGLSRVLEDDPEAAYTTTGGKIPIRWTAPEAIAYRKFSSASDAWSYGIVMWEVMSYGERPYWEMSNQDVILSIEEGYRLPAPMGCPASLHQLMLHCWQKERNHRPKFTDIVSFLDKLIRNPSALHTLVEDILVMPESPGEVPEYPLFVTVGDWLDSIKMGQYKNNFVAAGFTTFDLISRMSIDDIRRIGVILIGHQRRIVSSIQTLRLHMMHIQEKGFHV
- testSummary: KINOMEscan competitive binding, whole panel
- studyConditions: 10 µM, n=1; kinase EPHA6; read-out: Percent inhibition EPHA6
recordedEndpoint: inhibition at 10 µM (%)
Just the number please, in %, no unit attached.

// solved cases for inhibition at 10 µM follow
// compound COc1cc(Nc2nccc(-c3sc(N)nc3-c3cccc(NC(=O)c4c(F)cccc4F)c3)n2)cc(OC)c1OC [Compound 7] , assay panel of 203 kinases (Homo sapiens), inhibition at 10 µM value: 100

// compound c1ccc(COc2cccc(-c3ccnc4[nH]ccc34)c2)cc1 [Compound 9] , assay panel of 203 kinases (Homo sapiens), inhibition at 10 µM value: 0

Note: attention shifts to another entry.
// compound Clc1ccc(Nc2ncc(-c3ccccc3)s2)cc1 [Compound 10] , assay panel of 203 kinases (Homo sapiens), inhibition at 10 µM value: 0

All values here come from paper PMC9927415.
